experiment: Oral bioavailability in ICR mouse at 1 mg/kg administered as cassette dose by LC-MS/MS analysis; format: ADME, organism-based; details: in vivo
ASSAY_READOUT: bioavailability (%)
Give the value, in units of %, as a plain number.

Problem: Give the reported value of bioavailability for this record: `Cc1nn(-c2cccc3cc(Cc4cccc(C(F)(F)F)c4)sc23)c(CO)c1C(=O)NCCO`
Solution: 29.9

###

experiment: AUC (0 to 8 hrs) in ICR mouse at 1 mg/kg, po administered as cassette dose by LC-MS/MS analysis; type: ADME, organism-based; set-up: time < 8 hr, dose 1 mg/kg, route oral; details: in vivo
ASSAY_READOUT: AUC(0-t) at 8 h (ng·h/mL)
Give the value, in units of ng·h/mL, as a plain number.

Problem: Give the reported value of AUC(0-t) at 8 h for this record: `Cc1nn(-c2cccc3cc(Cc4cccc(C(F)(F)F)c4)sc23)c(CO)c1C(=O)NCCO`
Solution: 406
